Below, each entry is listed alongside its reported DC50.
# System Under Test: HiBit-BRM fusion protein (Homo sapiens, UniProt P51531)
# Construct: expressed in transfected cells
# Sequence (P51531 whole entry, the tested form may be a part): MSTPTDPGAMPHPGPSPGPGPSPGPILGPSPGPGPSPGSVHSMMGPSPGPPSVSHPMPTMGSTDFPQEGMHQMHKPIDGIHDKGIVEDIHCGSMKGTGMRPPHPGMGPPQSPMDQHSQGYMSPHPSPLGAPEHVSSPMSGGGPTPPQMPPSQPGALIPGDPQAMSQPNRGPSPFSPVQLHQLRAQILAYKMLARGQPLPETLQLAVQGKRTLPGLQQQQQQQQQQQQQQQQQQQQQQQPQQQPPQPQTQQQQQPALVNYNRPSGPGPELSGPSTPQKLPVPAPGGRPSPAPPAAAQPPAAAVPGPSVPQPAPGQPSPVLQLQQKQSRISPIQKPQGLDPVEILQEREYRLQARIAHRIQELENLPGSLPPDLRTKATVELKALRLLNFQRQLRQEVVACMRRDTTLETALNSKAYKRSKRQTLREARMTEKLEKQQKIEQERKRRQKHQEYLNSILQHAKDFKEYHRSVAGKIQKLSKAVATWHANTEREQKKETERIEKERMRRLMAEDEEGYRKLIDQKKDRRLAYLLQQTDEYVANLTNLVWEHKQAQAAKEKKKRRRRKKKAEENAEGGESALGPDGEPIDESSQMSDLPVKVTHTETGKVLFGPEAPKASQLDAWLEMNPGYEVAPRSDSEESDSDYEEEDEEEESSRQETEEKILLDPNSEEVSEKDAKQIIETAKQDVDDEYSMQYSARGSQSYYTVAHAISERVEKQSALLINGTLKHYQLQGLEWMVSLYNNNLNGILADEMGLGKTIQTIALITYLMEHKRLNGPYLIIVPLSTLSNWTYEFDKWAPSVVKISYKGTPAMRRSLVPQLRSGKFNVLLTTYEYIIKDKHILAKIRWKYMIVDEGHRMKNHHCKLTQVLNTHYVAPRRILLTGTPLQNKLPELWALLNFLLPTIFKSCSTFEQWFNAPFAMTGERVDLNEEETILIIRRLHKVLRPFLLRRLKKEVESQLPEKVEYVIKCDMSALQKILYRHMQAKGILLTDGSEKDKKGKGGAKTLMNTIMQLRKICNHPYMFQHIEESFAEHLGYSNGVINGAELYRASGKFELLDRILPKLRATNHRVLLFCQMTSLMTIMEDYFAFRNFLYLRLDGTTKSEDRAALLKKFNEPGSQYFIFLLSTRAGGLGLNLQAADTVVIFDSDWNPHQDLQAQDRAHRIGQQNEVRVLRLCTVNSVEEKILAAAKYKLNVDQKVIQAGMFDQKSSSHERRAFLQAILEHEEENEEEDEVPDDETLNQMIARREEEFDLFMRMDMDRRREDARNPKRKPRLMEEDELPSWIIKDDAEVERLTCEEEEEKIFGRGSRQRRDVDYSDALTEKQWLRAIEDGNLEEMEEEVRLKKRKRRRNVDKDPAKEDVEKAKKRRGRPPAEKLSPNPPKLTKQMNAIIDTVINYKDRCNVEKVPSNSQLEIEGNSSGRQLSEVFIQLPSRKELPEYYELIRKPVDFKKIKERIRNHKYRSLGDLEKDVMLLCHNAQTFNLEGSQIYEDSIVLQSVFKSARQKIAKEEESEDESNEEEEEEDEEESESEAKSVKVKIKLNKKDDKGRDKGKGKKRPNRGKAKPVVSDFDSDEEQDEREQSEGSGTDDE
# Measurement Description: HiBiT-BRM cell-based degradation assay (Nano-Glo HiBiT lytic detection, 24 h)
# Measurement Context: HeLa cell line expressing HiBiT-BRM, read-out: BRM HiBit Degradation IC50

Example molecules with recorded DC50:
[
  {
    "Smiles String": "Cc1ncsc1-c1ccc([C@H](C)NC(=O)[C@@H]2C[C@@H](O)CN2C(=O)[C@@H](c2cc(N3CC4(CC(c5cc6nnc(-c7ccccc7O)cc6n5C5(CF)CC5)C4)C3)no2)C(C)C)cc1",
    "Value Observed": "< 10 nM"
  },
  {
    "Smiles String": "Cc1cc(-c2cc([C@H](C(=O)N3C[C@H](O)C[C@H]3C(=O)N[C@@H](C)c3ccc(-c4scnc4C)cc3)C(C)C)on2)cnc1N1CC[C@@H](c2cc3nnc(-c4ccccc4O)cc3n2C2CC2)C1",
    "Value Observed": "> 10 nM"
  }
]

Result for Cc1ncsc1-c1ccc([C@H](C)NC(=O)[C@@H]2C[C@@H](O)CN2C(=O)[C@@H](c2cc(-c3cnc(N4CC[C@H](c5cc6nnc(-c7cc(F)cc(F)c7O)cc6n5C5CC5)C4)nc3)no2)C(C)C)cc1 , tested on HiBit-BRM fusion protein (Homo sapiens, UniProt P51531), DC50: > 10 nM

* * *

# System Under Test: HiBit-BRG1 fusion protein (Homo sapiens, UniProt P51532)
# Construct: expressed in transfected cells
# Sequence (P51532 whole entry, the tested form may be a part): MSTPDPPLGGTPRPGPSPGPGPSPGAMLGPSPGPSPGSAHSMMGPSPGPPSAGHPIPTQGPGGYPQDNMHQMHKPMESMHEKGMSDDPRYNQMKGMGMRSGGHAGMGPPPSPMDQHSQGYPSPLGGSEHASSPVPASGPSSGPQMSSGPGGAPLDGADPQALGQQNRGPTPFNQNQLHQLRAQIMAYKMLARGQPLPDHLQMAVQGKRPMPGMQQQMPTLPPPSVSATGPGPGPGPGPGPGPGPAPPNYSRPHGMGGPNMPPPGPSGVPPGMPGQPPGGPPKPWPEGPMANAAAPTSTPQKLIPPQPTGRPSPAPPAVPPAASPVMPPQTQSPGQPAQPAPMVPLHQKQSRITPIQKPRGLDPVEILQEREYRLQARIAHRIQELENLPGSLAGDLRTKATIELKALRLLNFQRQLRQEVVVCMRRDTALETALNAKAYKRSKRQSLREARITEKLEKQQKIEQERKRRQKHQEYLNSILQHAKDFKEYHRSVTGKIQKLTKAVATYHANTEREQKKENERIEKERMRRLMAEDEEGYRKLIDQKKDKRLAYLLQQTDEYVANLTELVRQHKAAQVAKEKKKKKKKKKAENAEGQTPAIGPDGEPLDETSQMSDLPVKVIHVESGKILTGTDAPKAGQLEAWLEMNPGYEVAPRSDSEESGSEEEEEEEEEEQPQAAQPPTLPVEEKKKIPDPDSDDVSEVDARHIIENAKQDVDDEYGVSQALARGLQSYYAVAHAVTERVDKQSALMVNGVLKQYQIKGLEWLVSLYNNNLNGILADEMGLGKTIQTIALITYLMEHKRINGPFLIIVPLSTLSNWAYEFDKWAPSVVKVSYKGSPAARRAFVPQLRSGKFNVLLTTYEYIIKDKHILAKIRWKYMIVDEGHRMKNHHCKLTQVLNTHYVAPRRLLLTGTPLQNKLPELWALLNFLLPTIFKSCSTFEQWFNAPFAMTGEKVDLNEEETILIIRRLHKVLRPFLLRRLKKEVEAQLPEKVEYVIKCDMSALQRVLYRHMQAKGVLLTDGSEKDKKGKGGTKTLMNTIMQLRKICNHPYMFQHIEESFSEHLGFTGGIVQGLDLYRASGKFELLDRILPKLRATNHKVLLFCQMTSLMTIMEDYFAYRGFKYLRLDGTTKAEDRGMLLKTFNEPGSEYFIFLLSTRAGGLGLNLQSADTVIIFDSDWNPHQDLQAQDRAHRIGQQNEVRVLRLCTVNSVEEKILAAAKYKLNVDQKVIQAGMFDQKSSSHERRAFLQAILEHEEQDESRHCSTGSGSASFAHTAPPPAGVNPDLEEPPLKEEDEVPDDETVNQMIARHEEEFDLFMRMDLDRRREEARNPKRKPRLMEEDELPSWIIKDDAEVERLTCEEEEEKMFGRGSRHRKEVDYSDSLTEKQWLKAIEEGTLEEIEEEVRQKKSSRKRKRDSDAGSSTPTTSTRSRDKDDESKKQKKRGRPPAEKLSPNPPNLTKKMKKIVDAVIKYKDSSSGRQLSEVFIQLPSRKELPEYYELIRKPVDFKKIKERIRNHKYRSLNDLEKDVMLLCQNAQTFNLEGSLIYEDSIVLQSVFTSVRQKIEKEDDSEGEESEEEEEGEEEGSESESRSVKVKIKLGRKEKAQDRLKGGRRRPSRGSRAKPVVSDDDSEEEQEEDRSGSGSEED
# Measurement Description: HiBiT-BRG1 cell-based degradation assay (Nano-Glo HiBiT lytic detection, 24 h)
# Measurement Context: HeLa cell line expressing HiBit-BRG1 and LgBit, read-out: BRMG1 HiBit Degradation IC50
Below, each entry is listed alongside its reported DC50.

Example compounds with recorded DC50:
[
  {
    "Smiles String": "Cc1ncsc1-c1ccc([C@H](C)NC(=O)[C@@H]2C[C@@H](O)CN2C(=O)[C@@H](c2cc(-c3cnc(N4CC5(CC(c6cc7nnc(-c8ccccc8O)cc7n6C6CCC6)C5)C4)nc3)no2)C(C)C)cc1",
    "Value Observed": "> 10 nM"
  },
  {
    "Smiles String": "Cc1ncsc1-c1ccc([C@H](C)NC(=O)[C@@H]2C[C@@H](O)CN2C(=O)[C@@H](c2cc(-c3cnc(N4CCC(c5cc6nnc(-c7ccccc7O)cc6n5C)CC4)nc3)no2)C(C)C)cc1",
    "Value Observed": "< 10 nM"
  },
  {
    "Smiles String": "Cc1ncsc1-c1ccc([C@H](C)NC(=O)[C@@H]2C[C@@H](O)CN2C(=O)[C@@H](c2cc(-c3cnc(N4CCN(c5cc6nnc(-c7ccccc7O)cc6n5C)CC4)nc3)no2)C(C)C)cc1",
    "Value Observed": "< 10 nM"
  },
  {
    "Smiles String": "Cc1ncsc1-c1ccc([C@H](C)NC(=O)[C@@H]2C[C@@H](O)CN2C(=O)[C@@H](c2cc(-c3cnc(N4CCC(c5cc6nnc(-c7ccccc7O)cc6n5C(C)C)CC4)nc3)no2)C(C)C)cc1",
    "Value Observed": "< 10 nM"
  }
]

Now look at this one.
Result for Cc1ncsc1-c1ccc([C@H](C)NC(=O)[C@@H]2C[C@@H](O)CN2C(=O)[C@@H](c2cc(N3CCC(C(=O)N4CC(c5cc6nnc(-c7ccccc7O)cc6n5C)C4)CC3)no2)C(C)C)cc1 , tested on HiBit-BRG1 fusion protein (Homo sapiens, UniProt P51532), DC50: > 100 nM

* * *

# System Under Test: HiBit-BRG1 fusion protein (Homo sapiens, UniProt P51532)
# Construct: expressed in transfected cells
# Measurement Description: HiBiT-BRG1 cell-based degradation assay (Nano-Glo HiBiT lytic detection, 24 h)
# Measurement Context: HeLa cell line expressing HiBit-BRG1 and LgBit, read-out: BRG1 HiBit Degradation Maximum (%)
Measure: Dmax

Example compounds with recorded Dmax:
[
  {
    "Compound": "Cc1ncsc1-c1ccc([C@H](C)NC(=O)[C@@H]2C[C@@H](O)CN2C(=O)[C@@H](c2cc(-c3cnc(N4CCC(c5cc6nnc(-c7ccccc7O)cc6n5C5(C)CC5)CC4)nc3)no2)C(C)C)cc1",
    "Value Observed": "< 50%"
  },
  {
    "Compound": "Cc1ncsc1-c1ccc([C@H](C)NC(=O)[C@@H]2C[C@@H](O)CN2C(=O)[C@@H](c2cc(N3CCC(c4cc5nnc(-c6ccccc6O)cc5n4C4CC4)CC3)no2)C(C)C)cc1",
    "Value Observed": "< 50%"
  },
  {
    "Compound": "C#Cc1ccc([C@H](C)NC(=O)[C@@H]2C[C@@H](O)CN2C(=O)C(c2cc(N3CC4(CC(c5cc6nnc(-c7ccccc7O)cc6n5C5CCC5)C4)C3)no2)C(C)C)cc1 (some centres unmarked)",
    "Value Observed": "< 50%"
  },
  {
    "Compound": "Cc1ncsc1-c1ccc([C@H](C)NC(=O)[C@@H]2C[C@@H](O)CN2C(=O)[C@H](c2cc(-c3cnc(N4CCC(c5cc6nnc(-c7ccccc7O)cc6n5C5CC5)CC4)nc3)no2)C(C)C)cc1",
    "Value Observed": "< 50%"
  }
]

Now look at this one.
Result for Cc1ncsc1-c1ccc([C@H](C)NC(=O)[C@@H]2C[C@@H](O)CN2C(=O)[C@@H](c2cc(-c3cnc(N4CCC(c5cc6nnc(-c7ccccc7O)cc6n5C(C)C)CC4)nc3)no2)C(C)C)cc1 , tested on HiBit-BRG1 fusion protein (Homo sapiens, UniProt P51532), Dmax: > 75%

* * *

# System Under Test: HiBit-BRG1 fusion protein (Homo sapiens)
# Construct: expressed in transfected cells
# Measurement Description: HiBiT-BRG1 cell-based degradation assay (Nano-Glo HiBiT lytic detection, 24 h)
# Measurement Context: HeLa cell line expressing HiBit-BRG1 and LgBit, read-out: BRG1 HiBit Degradation Maximum (%)
Below, each entry is listed alongside its reported Dmax.

[
  {
    "Molecule": "Cc1ncsc1-c1ccc([C@H](C)NC(=O)[C@@H]2C[C@@H](O)CN2C(=O)[C@@H](c2cc(-c3cnc(N4CCN(c5cc6nnc(-c7ccccc7O)cc6n5C)CC4)nc3)no2)C(C)C)cc1 [Compound 28]",
    "Dmax": "> 75%"
  },
  {
    "Molecule": "Cc1ncsc1-c1ccc(CNC(=O)[C@@H]2C[C@@H](O)CN2C(=O)[C@@H](c2cc(N3CCC4(CC3)CC(c3cc5nnc(-c6ccccc6O)cc5n3C3CC3)C4)no2)C(C)C)cc1 [Compound 84]",
    "Dmax": "< 50%"
  },
  {
    "Molecule": "C#Cc1ccc(CNC(=O)[C@@H]2C[C@@H](O)CN2C(=O)C(c2cc(N3CC4(CC(c5cc6nnc(-c7ccccc7O)cc6n5C5CCC5)C4)C3)no2)C(C)C)cc1 (stereo partly shown) [Compound 57]",
    "Dmax": "< 50%"
  },
  {
    "Molecule": "C#CCNC(=O)[C@@H]1C[C@@H](O)CN1C(=O)C(c1cc(N2CC3(CC(c4cc5nnc(-c6ccccc6O)cc5n4C4CCC4)C3)C2)no1)C(C)C (stereo partly shown) [Compound 53]",
    "Dmax": "< 50%"
  },
  {
    "Molecule": "Cc1ncsc1-c1ccc([C@H](C)NC(=O)[C@@H]2C[C@@H](O)CN2C(=O)[C@@H](c2cc(OCCN3CC(c4cc5nnc(-c6ccccc6O)cc5n4C)C3)no2)C(C)C)cc1 [Compound 8]",
    "Dmax": "> 75%"
  },
  {
    "Molecule": "CC[C@H](C)NC(=O)[C@@H]1C[C@@H](O)CN1C(=O)C(c1cc(N2CC3(CC(c4cc5nnc(-c6ccccc6O)cc5n4C4CCC4)C3)C2)no1)C(C)C (stereo partly shown) [Compound 51]",
    "Dmax": "< 50%"
  },
  {
    "Molecule": "C#Cc1ccc(CNC(=O)[C@@H]2C[C@@H](O)CN2C(=O)C(c2cc(N3CC4(CC(c5cc6nnc(-c7ccccc7O)cc6n5C5CCC5)C4)C3)no2)C(C)C)c(OC)c1 (stereo partly shown) [Compound 58]",
    "Dmax": "< 50%"
  },
  {
    "Molecule": "Cc1ncsc1-c1ccc([C@H](C)NC(=O)[C@@H]2C[C@@H](O)CN2C(=O)[C@@H](c2cc(-c3cnc(N4CC[C@H](c5cc6nnc(-c7ccccc7O)cc6n5C5CCC5)C4)nc3)no2)C(C)C)cc1 [Compound 112]",
    "Dmax": "> 50%"
  }
]

Notebook: Cc1ncsc1-c1ccc([C@H](C)NC(=O)[C@@H]2C[C@@H](O)CN2C(=O)[C@@H](c2cc(N3CCC4(CC3)CC(c3cc5nnc(-c6ccccc6O)cc5n3CC3CC3)C4)no2)C(C)C)cc1 [Compound 86] , Dmax read as < 50%

Notebook: CC(C)C(C(=O)N1C[C@H](O)C[C@H]1C(=O)N[C@@H](C)c1ccccc1)c1cc(N2CC3(CC(c4cc5nnc(-c6ccccc6O)cc5n4C4CCC4)C3)C2)no1 (stereo partly shown) [Compound 49] , Dmax read as < 50%
